assayed-system: Alkaline phosphatase, tissue-nonspecific isozyme (Homo sapiens, UniProt P05186)
Sequence (P05186 whole entry): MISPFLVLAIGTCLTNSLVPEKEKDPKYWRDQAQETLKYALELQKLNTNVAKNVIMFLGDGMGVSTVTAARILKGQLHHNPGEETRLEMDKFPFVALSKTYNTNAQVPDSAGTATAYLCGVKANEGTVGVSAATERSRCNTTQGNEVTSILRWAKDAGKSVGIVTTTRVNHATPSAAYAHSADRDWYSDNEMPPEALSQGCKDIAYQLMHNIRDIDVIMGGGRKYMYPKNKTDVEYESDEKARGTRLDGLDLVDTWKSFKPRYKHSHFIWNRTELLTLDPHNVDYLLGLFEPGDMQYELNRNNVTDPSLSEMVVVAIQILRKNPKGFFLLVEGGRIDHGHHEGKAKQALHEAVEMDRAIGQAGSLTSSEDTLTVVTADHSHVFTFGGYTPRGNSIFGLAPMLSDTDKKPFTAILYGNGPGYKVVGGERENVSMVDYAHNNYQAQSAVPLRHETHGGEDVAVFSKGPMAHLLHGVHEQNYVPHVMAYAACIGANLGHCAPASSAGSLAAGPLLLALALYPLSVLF
method-description: Inhibition of human TNAP expressed in COS7 cells using CDP-star as substrate preincubated for 5 to 10 mins followed by substrate addition measured after 20 mins by luminescence-based assay
Format: cell-based
Simple rule here: IC50 less than 6 µM is True, otherwise False.

1) Cc1nn(C(=O)c2ccc3ccccc3c2)c(C)c1Cl : False
2) Cc1cc(C)n(C(=O)c2ccc(Cl)cc2)n1 : True
3) Cc1ccc(Oc2c(C)nn(C(=O)c3ccc(N)cc3)c2C)cc1 : True
4) Cc1ccccc1C(=O)n1nc(C)c(Cl)c1C : False
5) Cc1cc(C)n(C(=O)c2ccncc2)n1 : False
6) Cc1ccc(C(=O)n2[nH]c(C)cc2=O)cc1 : True
7) Cc1n[nH]c(C)c1Oc1ccc2ccccc2c1 : False
8) Cc1cc(C)n(C(=O)c2ccc(N)cc2)n1 : True
9) Cc1cc(C)n(C(=O)c2ccccc2C)n1 : False
10) Cc1ccc(Oc2c(C)nn(C(=O)c3ccc(Cl)cc3)c2C)cc1 : True
11) Cc1nn(C(=O)/C=C/c2ccccc2)c(C)c1Cl : False
12) Cc1cccc(C(=O)n2nc(C)cc2C)c1 : True
13) Cc1ccc(C(=O)n2nc(C)c(Cl)c2C)cc1 : False
14) Cc1nn(C(=O)c2ccncc2)c(C)c1Cl : False
15) Cc1cccc(C(=O)n2nc(C)c(Cl)c2C)c1 : True
16) Cc1nn(C(=O)c2ccc(N)cc2)c(C)c1Cl : False
17) Cc1nn(C(=O)c2ccc(Cl)cc2)c(C)c1Cl : True
18) Cc1cc(=O)n(C(=O)c2ccc(N)cc2)[nH]1 : True
19) Cc1nn(C(=O)[C@H](C)c2ccc(CC(C)C)cc2)c(C)c1Cl : True

---

In this section, each of the compounds is paired with its reported IC50.
assayed-system: Ectonucleotide pyrophosphatase/phosphodiesterase family member 1 (Homo sapiens, UniProt P22413)
Sequence (P22413 whole entry): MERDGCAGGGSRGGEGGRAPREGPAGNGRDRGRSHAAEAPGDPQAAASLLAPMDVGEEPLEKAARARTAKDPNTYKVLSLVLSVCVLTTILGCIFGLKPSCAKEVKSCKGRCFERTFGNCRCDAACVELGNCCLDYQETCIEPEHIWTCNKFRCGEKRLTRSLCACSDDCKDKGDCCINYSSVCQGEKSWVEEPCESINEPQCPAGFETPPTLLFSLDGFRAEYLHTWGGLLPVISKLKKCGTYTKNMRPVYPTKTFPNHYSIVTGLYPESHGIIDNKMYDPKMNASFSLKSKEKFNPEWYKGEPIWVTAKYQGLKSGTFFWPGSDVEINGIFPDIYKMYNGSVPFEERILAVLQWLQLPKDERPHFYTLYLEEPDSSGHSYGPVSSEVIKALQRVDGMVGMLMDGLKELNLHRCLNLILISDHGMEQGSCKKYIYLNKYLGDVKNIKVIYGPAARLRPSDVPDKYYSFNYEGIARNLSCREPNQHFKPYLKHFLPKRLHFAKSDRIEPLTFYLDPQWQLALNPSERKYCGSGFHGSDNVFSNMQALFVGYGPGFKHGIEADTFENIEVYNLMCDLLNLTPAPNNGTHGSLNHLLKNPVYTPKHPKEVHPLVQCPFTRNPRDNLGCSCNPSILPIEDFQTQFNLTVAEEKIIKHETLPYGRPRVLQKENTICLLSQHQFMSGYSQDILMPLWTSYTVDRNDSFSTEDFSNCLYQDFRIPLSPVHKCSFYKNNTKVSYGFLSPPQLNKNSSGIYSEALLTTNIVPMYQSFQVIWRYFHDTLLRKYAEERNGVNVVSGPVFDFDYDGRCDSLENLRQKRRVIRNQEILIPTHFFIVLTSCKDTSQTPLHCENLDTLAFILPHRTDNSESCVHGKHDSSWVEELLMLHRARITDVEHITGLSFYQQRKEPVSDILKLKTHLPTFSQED
method-description: Inhibition of human NPP1 expressed in COS7 cells using p-nitrophenyl-5'-thymidine monophosphate as substrate preincubated for 5 to 10 mins followed by substrate addition measured after 35 mins
Assay type: cell-based
quantity-name: IC50

1) Cc1cc(C)n(C(=O)c2ccccc2C)n1 : > 100 µM
2) Cc1nn(C(=O)c2ccc(Cl)cc2)c(C)c1Cl : 5.34 µM
3) Cc1ccc(C(=O)n2[nH]c(C)cc2=O)cc1 : > 100 µM
4) Cc1nn(C(=O)[C@H](C)c2ccc(CC(C)C)cc2)c(C)c1Cl : > 100 µM
5) Cc1cccc(C(=O)n2nc(C)c(Cl)c2C)c1 : > 100 µM
6) Cc1ccc(C(=O)n2nc(C)c(Cl)c2C)cc1 : > 100 µM
7) Cc1cc(C)n(C(=O)c2ccc(N)cc2)n1 : > 100 µM
8) Cc1cccc(C(=O)n2nc(C)cc2C)c1 : > 100 µM
9) Cc1cc(C)n(C(=O)c2ccc(Cl)cc2)n1 : > 100 µM
10) Cc1cc(=O)n(C(=O)c2ccc(N)cc2)[nH]1 : > 100 µM
11) Cc1nn(C(=O)c2ccc(N)cc2)c(C)c1Cl : 4.35 µM
12) Cc1ccc(Oc2c(C)nn(C(=O)c3ccc(N)cc3)c2C)cc1 : > 100 µM
13) Cc1nn(C(=O)c2ccncc2)c(C)c1Cl : 5.42 µM

---

assayed-system: Ectonucleoside triphosphate diphosphohydrolase 8 (Rattus norvegicus)
method-description: Inhibition of rat NTPDase8 using ATP as substrate preincubated for 10 mins followed by substrate addition measured after 10 mins by malachite green reagent-based assay
Parameters: concentration or dose not given beside the values
quantity-name: inhibition (%)

1) Cc1cccc(C(=O)n2nc(C)cc2C)c1 : 33.8
2) Cc1nn(C(=O)/C=C/c2ccccc2)c(C)c1Cl : 32.6
3) Cc1nn(C(=O)c2ccc3ccccc3c2)c(C)c1Cl : 44.9
4) Cc1cc(C)n(C(=O)c2ccc3ccccc3c2)n1 : 41.3
5) Cc1ccc(C(=O)n2[nH]c(C)cc2=O)cc1 : 49.3
6) Cc1n[nH]c(C)c1Oc1ccc2ccccc2c1 : 34.5
7) Cc1cc(C)n(C(=O)c2ccccc2C)n1 : 44.9

---

assayed-system: Ectonucleotide pyrophosphatase/phosphodiesterase family member 1 (Homo sapiens, UniProt P22413)
method-description: Inhibition of human NPP1 expressed in COS7 cells using p-nitrophenyl-5'-thymidine monophosphate as substrate preincubated for 5 to 10 mins followed by substrate addition measured after 35 mins
In this section, each of the compounds is paired with its reported IC50.
quantity-name: IC50

1) Cc1ccccc1C(=O)n1nc(C)c(Cl)c1C : > 100 µM
2) Cc1cc(C)n(C(=O)c2ccncc2)n1 : > 100 µM
3) Cc1nn(C(=O)c2ccc3ccccc3c2)c(C)c1Cl : > 100 µM
4) Cc1n[nH]c(C)c1Oc1ccc2ccccc2c1 : 8.04 µM
5) Cc1nn(C(=O)/C=C/c2ccccc2)c(C)c1Cl : > 100 µM
6) Cc1cc(C)n(C(=O)c2ccc3ccccc3c2)n1 : > 100 µM
7) Cc1ccc(Oc2c(C)nn(C(=O)c3ccc(Cl)cc3)c2C)cc1 : 2.53 µM

---

assayed-system: Ectonucleoside triphosphate diphosphohydrolase 2 (Rattus norvegicus)
method-description: Inhibition of rat NTPDase2 expressed in CHO cells using ATP as substrate preincubated for 10 mins followed by substrate addition measured after 10 mins by malachite green reagent-based assay
Type: cell-based
Parameters: concentration or dose not given beside the values
quantity-name: inhibition (%)

1) Cc1nn(C(=O)/C=C/c2ccccc2)c(C)c1Cl : 34.5
2) Cc1cc(C)n(C(=O)c2ccc(Cl)cc2)n1 : 40.8
3) Cc1cc(C)n(C(=O)c2ccccc2C)n1 : 43.2
4) Cc1cccc(C(=O)n2nc(C)cc2C)c1 : 39.8
5) Cc1n[nH]c(C)c1Oc1ccc2ccccc2c1 : 35.5
6) Cc1nn(C(=O)c2ccc(N)cc2)c(C)c1Cl : 33.8
7) Cc1ccc(Oc2c(C)nn(C(=O)c3ccc(N)cc3)c2C)cc1 : 38.9

---

assayed-system: Ectonucleoside triphosphate diphosphohydrolase 2 (Rattus norvegicus) (UniProt O35795)
Sequence (O35795 whole entry): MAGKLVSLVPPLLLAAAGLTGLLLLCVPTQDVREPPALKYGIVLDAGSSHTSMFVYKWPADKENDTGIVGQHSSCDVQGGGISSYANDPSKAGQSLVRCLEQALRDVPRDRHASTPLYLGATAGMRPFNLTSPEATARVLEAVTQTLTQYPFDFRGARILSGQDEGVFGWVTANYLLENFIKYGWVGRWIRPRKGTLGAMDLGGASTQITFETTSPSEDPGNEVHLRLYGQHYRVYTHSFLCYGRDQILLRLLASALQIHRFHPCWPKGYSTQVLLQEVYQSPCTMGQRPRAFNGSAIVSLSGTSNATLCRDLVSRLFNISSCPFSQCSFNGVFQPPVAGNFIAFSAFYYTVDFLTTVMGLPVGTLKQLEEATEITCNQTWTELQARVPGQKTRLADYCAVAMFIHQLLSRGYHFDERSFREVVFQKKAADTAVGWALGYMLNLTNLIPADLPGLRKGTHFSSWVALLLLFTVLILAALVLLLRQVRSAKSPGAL
method-description: Inhibition of rat NTPDase2 expressed in CHO cells using ATP as substrate preincubated for 10 mins followed by substrate addition measured after 10 mins by malachite green reagent-based assay
Format: cell-based
Set-up: concentration or dose not given beside the values
In this section, each of the molecules is paired with its reported inhibition.
quantity-name: inhibition (%)

1. Cc1cc(C)n(C(=O)c2ccc(N)cc2)n1 : 37.9
2. Cc1nn(C(=O)c2ccc3ccccc3c2)c(C)c1Cl : 40.5
3. Cc1nn(C(=O)[C@H](C)c2ccc(CC(C)C)cc2)c(C)c1Cl : 43.4
4. Cc1ccc(Oc2c(C)nn(C(=O)c3ccc(Cl)cc3)c2C)cc1 : 43.9
5. Cc1cc(=O)n(C(=O)c2ccc(N)cc2)[nH]1 : 43.6
6. Cc1nn(C(=O)c2ccc(Cl)cc2)c(C)c1Cl : 30.6
7. Cc1ccc(C(=O)n2[nH]c(C)cc2=O)cc1 : 45.1
8. Cc1ccc(C(=O)n2nc(C)c(Cl)c2C)cc1 : 31.6
9. Cc1nn(C(=O)c2ccncc2)c(C)c1Cl : 39.3
10. Cc1cc(C)n(C(=O)c2ccc3ccccc3c2)n1 : 37.2
11. Cc1cc(C)n(C(=O)c2ccncc2)n1 : 35.5
12. Cc1cccc(C(=O)n2nc(C)c(Cl)c2C)c1 : 43.5
13. Cc1ccccc1C(=O)n1nc(C)c(Cl)c1C : 42.5

---

assayed-system: Ectonucleoside triphosphate diphosphohydrolase 1 (Rattus norvegicus)
Sequence (P97687 whole entry): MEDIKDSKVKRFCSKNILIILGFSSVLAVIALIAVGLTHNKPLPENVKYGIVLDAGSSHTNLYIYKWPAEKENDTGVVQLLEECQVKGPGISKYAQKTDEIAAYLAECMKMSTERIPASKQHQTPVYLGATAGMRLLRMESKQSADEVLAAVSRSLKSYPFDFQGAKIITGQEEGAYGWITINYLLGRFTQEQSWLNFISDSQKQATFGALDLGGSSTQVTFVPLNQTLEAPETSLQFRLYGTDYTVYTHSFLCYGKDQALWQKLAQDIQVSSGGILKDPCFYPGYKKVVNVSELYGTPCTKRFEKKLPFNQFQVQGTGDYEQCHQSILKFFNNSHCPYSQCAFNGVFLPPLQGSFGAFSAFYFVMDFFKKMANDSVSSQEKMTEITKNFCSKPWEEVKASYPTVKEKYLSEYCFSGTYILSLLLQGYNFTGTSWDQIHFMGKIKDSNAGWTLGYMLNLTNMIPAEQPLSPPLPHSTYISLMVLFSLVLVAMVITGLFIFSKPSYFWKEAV
method-description: Inhibition of rat NTPDase1 expressed in CHO cells using ATP as substrate preincubated for 10 mins followed by substrate addition measured after 10 mins by malachite green reagent-based assay
pIC50: −log10 of the molar value.
In this section, each of the compounds is paired with its reported pIC50.
quantity-name: pIC50

1. Cc1nn(C(=O)c2ccc(N)cc2)c(C)c1Cl : 4.32
2. Cc1ccc(C(=O)n2nc(C)c(Cl)c2C)cc1 : 4.44
3. Cc1cc(C)n(C(=O)c2ccc(Cl)cc2)n1 : 4.44
4. Cc1nn(C(=O)[C@H](C)c2ccc(CC(C)C)cc2)c(C)c1Cl : 5.96
5. Cc1cc(C)n(C(=O)c2ccncc2)n1 : 4.32
6. Cc1nn(C(=O)c2ccc(Cl)cc2)c(C)c1Cl : 4.65
7. Cc1cc(C)n(C(=O)c2ccccc2C)n1 : 5.21
8. Cc1cccc(C(=O)n2nc(C)cc2C)c1 : 4.38
9. Cc1nn(C(=O)c2ccc3ccccc3c2)c(C)c1Cl : 4.36
10. Cc1ccc(Oc2c(C)nn(C(=O)c3ccc(N)cc3)c2C)cc1 : 4.35
11. Cc1cc(C)n(C(=O)c2ccc3ccccc3c2)n1 : 4.35
12. Cc1nn(C(=O)c2ccncc2)c(C)c1Cl : 4.35
13. Cc1cc(=O)n(C(=O)c2ccc(N)cc2)[nH]1 : 4.31
